- TEST: NCI Yeast Anticancer Drug Screen. Data for the rad50 strain (AID 155);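 further: 0% = growth of vehicle-only cultures of the same strain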
- EXPERIMENTAL SETUP: S. cerevisiae rad50 strain growth inhibition; at 50.0 µM; hits give high values
The panel holds about 79,000 compounds, 15% with a hit somewhere; the sample as a whole holds those more often.
We use 20% as the dividing line for growth inhibition: on or above the line is True, below is False.

Some solved cases for reference:
NC(=S)NNC(=O)CCC(=O)Nc1ccccc1Cl ... False
Cc1ccc(/C=N/NC(=O)c2ccc(C)cc2)cc1 ... False
Cc1ccc(NC(=O)C(Br)C(Br)c2ccccc2)cc1Cl (configuration not stated) ... True
CCC(CC(N)=O)C(C#N)(C#N)C(N)=O (configuration not stated) ... False
BrC1CCC(OCc2ccccc2)C(OCc2ccccc2)C1 (configuration not stated) ... False
C/C(=N/NC(N)=O)c1c(C)c(Cl)cc(Cl)c1OCCCC(C)C ... False

Data request: Is it the case that CCC(C(O)c1ccc(Cl)cc1)C(O)(C(F)(F)F)C(F)(F)F (configuration not stated) has growth inhibition reaching or exceeding 20%?
Data returned: True

Data request: For this molecule, is measured growth inhibition 20% or higher? CCCCC1(C#Cc2ccccc2)Sc2ccccc2N1C (configuration not stated)
Data returned: False

Data request: Hi team, for CC1=C2CCOC2=Nc2ccccc2O1 , is the recorded growth inhibition at or above 20%?
Data returned: False

====

- TEST: NCI Yeast Anticancer Drug Screen. Data for the mlh1 rad18 strain (AID 175)
- EXPERIMENTAL SETUP: S. cerevisiae mlh1 rad18 strain growth inhibition; at 50.0 µM; hits give high values
This is part of a sample that, as a whole, favours compounds with a hit. Of some 79,000 tested, about 15% had one in any assay.
MEASURED QUANTITY: growth inhibition (%)
Field format: number, assumed %, no unit text.

Below, 3 molecules whose answers are already recorded.
COC(=O)CCN(C)c1ccccc1 ... -7.5
COC(=O)NN1C(C)=C(C(=O)OC)C2(C#N)C(C(=O)OC)=C(C)N(NC(=O)OC)C12N (stereo unspecified) ... -18.4
CCCCC(NC(=O)c1cnc2ccccc2n1)C(=O)O (stereo unspecified) ... 31.6

Data request: Specify measured growth inhibition for COC(=O)C1(CC(=O)c2cc(Cl)ccc2Cl)NC(=S)NC(=O)C1C#N (stereo unspecified) .
Data returned: 2.1

Data request: Supply reported growth inhibition belonging to this molecule: COc1ccc(C2CC(=O)Oc3cc4c(cc32)OCO4)cc1 (stereo unspecified)
Data returned: -15.9

Data request: Give the measured growth inhibition for Cc1ccc(NC(=O)CCC(NS(=O)(=O)c2ccc(C)cc2)C(=O)O)cc1 (stereo unspecified)
Data returned: 42.1

Data request: Return reported growth inhibition. Input molecule: O=c1oc(-c2cccc(C[n+]3ccccc3)c2)nc2cc(Cl)ccc12
Data returned: -4.75

Data request: Specify growth inhibition for CC(C)(C)[Si](C)(C)OCC1CCC(n2cnc3c(=O)[nH]cnc32)O1 (stereo unspecified) and stop.
Data returned: -7.25

Data request: Give a short answer stating reported growth inhibition for CNC(=O)c1ccccc1O .
Data returned: 2.35

Data request: Report growth inhibition, nothing else, for this molecule: NS(=O)(=O)c1ccc(NC(=S)/N=C\c2c(O)[nH]c(=O)[nH]c2=O)cc1
Data returned: -11

Data request: Indicate its recorded growth inhibition; the molecule in question is O=NN(CCCl)C(=O)NC1CCC(C(=O)O)CC1 (stereo unspecified)
Data returned: 2.4

====

- TEST: NCI Yeast Anticancer Drug Screen. Data for the bub3 strain (AID 167)
- EXPERIMENTAL SETUP: S. cerevisiae bub3 mutant strain, at 50.0 µM, hits give high values
This is part of a sample that, as a whole, favours compounds with a hit. Of some 79,000 tested, about 15% had one in any assay. Where a SMILES comes first, the peptide text is derived from it. [ ]: non-standard residue; d: D form. The star is where a group is joined. Cbz = O=C(OCc1ccccc1)*; Dha = C=C(N)C(=O)O
MEASURED QUANTITY: growth inhibition (%)
Report as a plain number; the unit % is understood.

O=c1oc2ncccc2n1Cc1ccc([N+](=O)[O-])cc1 ... -1.15
CCC(=C(C#N)C#N)c1cc(OC)c(OC)c(OC)c1 ... -26.5
C=C(NC(=O)C(C)NC(=O)OCc1ccccc1)C(=O)N1CCCC1C(=O)NC(C)C(=O)NC (configuration not stated) (Cbz-A[Dha]PA-NHMe; configuration not given here) ... -4.35

Next:
Data request: Give the reported value of growth inhibition for this record: C[n+]1ccc2ccccc2c1C#N
Data returned: 0.35

====

- TEST: NCI Yeast Anticancer Drug Screen. Data for the bub3 strain (AID 167)
- EXPERIMENTAL SETUP: S. cerevisiae bub3 mutant strain, at 50.0 µM, hits give high values
About 79,000 compounds went through this panel and 15% of them were active in at least one assay; those are over-represented in the sample as a whole.
MEASURED QUANTITY: growth inhibition (%)
Provide the reading as a plain figure in %.

Data request: Give recorded growth inhibition. Cc1cc(C)c(NC(=O)c2cc(C(=O)O)c(C(=O)Nc3c(C)cc(C)cc3C)cc2C(=O)O)c(C)c1
Data returned: 2.5

Data request: Using known records, supply growth inhibition for CC(C)CCCC(C)CCCC(C)CCCC(C)CC(=O)O (stereo unspecified)
Data returned: -1.2

Data request: Supply measured growth inhibition of COC(=O)C(C)c1cccc2ccc3ccccc3c12 (stereo unspecified) in your reply.
Data returned: 15.2

Data request: # return recorded growth inhibition for input O=C(O)c1ccccc1SC(Sc1ccccc1C(=O)O)c1cccs1
Data returned: 6.25

Data request: Please supply the value of reported growth inhibition for the item COC(=O)C(O)(C(=O)OC)C1=C(N)C(=O)c2ccccc2C1=O
Data returned: 40.8

Data request: Name the recorded growth inhibition of the item Cc1ccc(S(=O)(=O)NCCC(Cl)(Cl)Cl)cc1 in your answer.
Data returned: 38

====

- TEST: NCI Yeast Anticancer Drug Screen. Data for the mlh1 rad18 strain (AID 175)
- EXPERIMENTAL SETUP: S. cerevisiae mlh1 rad18 strain growth inhibition; at 50.0 µM; hits give high values
About 79,000 compounds went through this panel and 15% of them were active in at least one assay; those are over-represented in the sample as a whole.
Listing of recorded growth inhibition by entry.
Form entry: value (%) — number only.

Consider the worked cases shown below.
N#CC1=C(O)/C(=C\c2ccc(Cl)cc2)N=C1N ... -3.35
O=C(CCCCCCC(=O)ON1C(=O)CCC1=O)ON1C(=O)CCC1=O ... -4.1
O=C(O)c1cc(Br)sc1Br ... -15.1

Data request: Write down growth inhibition measured for item N#CCCNC=O
Data returned: -4.95

Data request: Look up and state reported growth inhibition for Cc1cc(S(=O)(=O)Nc2n[nH]c(Nc3ccccc3)n2)c(SCC(=O)O)cc1Cl
Data returned: 23.1

Data request: Provide growth inhibition value for the following compound: CC(=O)c1ccc(OCc2ccccc2)cc1OCc1ccccc1
Data returned: -18.6

Data request: Given N#Cc1[nH]cnc1N , respond with its growth inhibition.
Data returned: 4.3

Data request: Look up growth inhibition of CC(Oc1ccccc1-c1ccccc1)C(=O)O (stereo not drawn) and report it.
Data returned: 15.1

Data request: Identify growth inhibition associated with the compound CCCCOC(=O)C(C)OC(=O)OC (stereo not drawn)
Data returned: 8

Data request: Provide growth inhibition value for the following compound: O=C(O)C1CC=CCC1c1c2ccc(=O)cc-2oc2cc(O)ccc12 (stereo not drawn)
Data returned: 13.6

Data request: State its growth inhibition: CCC(C)NC(=O)c1ccc(Cl)cc1Cl (stereo not drawn)
Data returned: -22.6

Data request: Consider the compound C/C(=C/c1ccccc1)OC(=O)c1ccccc1 . State its measured growth inhibition.
Data returned: 36.2

Data request: Give me measured growth inhibition, please, for this compound: O=C1Cc2ccccc2C(O)=C1c1cnccn1
Data returned: 5.95

====

- TEST: NCI Yeast Anticancer Drug Screen. Data for the cln2 rad14 strain (AID 165);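 further: 0% = growth equal to vehicle treated cultures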
- EXPERIMENTAL SETUP: S. cerevisiae cln2 rad14 strain, at 50.0 µM
About 79,000 compounds went through this panel and 15% of them were active in at least one assay; those are over-represented in the sample as a whole. The source made the active and inactive calls. Rule as the data show it: active = growth inhibition above about 70%; inactive = the rest.
Could you please pick one outcome from this set? T for active, F for inactive

Use the examples below as a reference point.
C/C(=C\c1ccccc1)C(O)S(=O)(=O)O (stereo not given) ... F
FC(F)(F)c1ccc(C2SCc3nc4ccccc4n32)cc1 (stereo not given) ... F
O=C(/C(N=Nc1ccccc1)=C(\O)c1ccccc1)c1ccccc1 ... F
Cc1csc(=S)n1C ... F
CC(=O)Nc1ccc(S(=O)(=O)CO)cc1 ... F

Data request: Entry CCC(CO)Nc1nncc2ccccc12 (stereo not given) : call = ?
Data returned: F

Data request: Field: outcome | Entry: CC(=O)N(C(C)=O)C(CS)C(=O)O (stereo not given)
Data returned: F

Data request: What is the recorded call for this compound in the test? CSc1ncnc2[nH]ncc12
Data returned: F

Data request: How did this test come out for O=C(Oc1ccccc1OC(=O)c1ccc(Cl)cc1)c1ccc(Cl)cc1 ?
Data returned: F

Data request: Recorded test call requested for Cc1ccccc1OCC1COCN(Cc2ccccc2)CO1 (stereo not given)
Data returned: F

Data request: Recorded test outcome, item COc1ccc2c(c1)CCC1C2CCC2(C)C(=O)C(n3cnc4c(SC)ncnc43)CC12 (stereo not given)
Data returned: F

Data request: // return assay outcome for CCCCCC/C=C/C(N)=O
Data returned: F

Data request: Which outcome did this test record for the compound O=S(=O)([O-])[O-].O=c1[nH]cnc2nc[n-]c12.[OH3+].[OH3+].[Zn+2] ?
Data returned: F

Data request: // param item: O=Cc1ccc(N2CCCCC2)cc1 ; yields the recorded call
Data returned: F

Data request: Field: outcome | Entry: CS(=O)(=O)CCCCCCCCCCC(=O)O
Data returned: F

Data request: Record lookup: outcome of this test for CCNC1=C(Cl)C(=O)c2ccccc2C1=O ?
Data returned: F

Data request: Recorded test outcome, item Cc1cc(N)ccc1N=Nc1ccc(S(=O)(=O)CCOS(=O)(=O)O)cc1
Data returned: F

Data request: // param item: N#CC1OC1c1ccccn1 (stereo not given) ; yields the recorded call
Data returned: F

Data request: Hi, do you know how Cc1ccccc1NC(=S)NC(=O)c1ccccc1 came out in this test?
Data returned: F

Data request: Dear colleague, could you share the recorded outcome for Cc1nc(N)[nH]c(=O)c1CCCN=Cc1ccc([N+](=O)[O-])cc1 when you have a moment?
Data returned: F

Data request: Per the records of this test, what outcome belongs to CNc1nnnn1-c1ccccc1C ?
Data returned: F

Data request: What call does the record list for CCNC(=O)NS(=O)(=O)c1ccc(Sc2ccc(C)cc2)nc1 ?
Data returned: F

Data request: Outcome logged for COc1ccc2c(c1)CCCN2C(=N)c1ccc([N+](=O)[O-])cc1 in this assay:
Data returned: F

Data request: Which outcome did this test record for the compound c1ccc(-c2cc[n+]3c4c2ccc2c(-c5ccccc5)cc[n+](c24)CC3)cc1 ?
Data returned: T
